Biological target: T1, human interleukin 12 (recombinant human IL-12, p70 heterodimer) (human, UniProt P29459 23-219; P29460 23-328)
T1 construct: p35 and p40 linked by a disulfide bridge; also called hIL-12; rh IL-12
T1 sequence (looked up) 1: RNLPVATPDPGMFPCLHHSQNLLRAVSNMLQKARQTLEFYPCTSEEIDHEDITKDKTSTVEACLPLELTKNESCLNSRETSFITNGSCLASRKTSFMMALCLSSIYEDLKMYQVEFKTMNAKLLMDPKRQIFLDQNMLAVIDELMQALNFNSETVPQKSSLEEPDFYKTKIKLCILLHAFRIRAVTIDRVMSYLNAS
T1 sequence (looked up) 2: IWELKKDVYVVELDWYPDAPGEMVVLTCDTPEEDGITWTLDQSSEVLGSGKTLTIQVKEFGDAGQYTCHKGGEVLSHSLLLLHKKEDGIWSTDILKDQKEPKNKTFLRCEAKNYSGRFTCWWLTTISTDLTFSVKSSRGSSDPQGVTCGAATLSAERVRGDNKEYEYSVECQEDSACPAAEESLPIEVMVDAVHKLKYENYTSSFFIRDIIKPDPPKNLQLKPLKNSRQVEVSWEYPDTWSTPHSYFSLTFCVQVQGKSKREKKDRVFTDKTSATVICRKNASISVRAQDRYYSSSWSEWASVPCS
Test: SPR (BIAcore), off-rate from human IL-12
Listing of recorded koff by entry.
assayEndpoint: koff (s⁻¹)

binder: Y61 IgG (antibody, V domains shown, IgG) VH: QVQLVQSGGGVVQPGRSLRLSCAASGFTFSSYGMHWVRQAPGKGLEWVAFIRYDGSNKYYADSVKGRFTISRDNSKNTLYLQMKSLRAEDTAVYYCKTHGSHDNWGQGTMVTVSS VL: SYVLTQPPSVSGTPGQRVTISCSGGRSNIGSNTVKWYQQLPGTAPKLLIYGNDQRPSGVPDRFSGSKSGTSASLAITGVQAEDEADYYCQSYDRGTHPALLFGTGTKVTVLG
assayEndpoint: koff
recordedResult: 0.00015
--
binder: Y61-L94Y IgG (antibody, V domains shown) VH: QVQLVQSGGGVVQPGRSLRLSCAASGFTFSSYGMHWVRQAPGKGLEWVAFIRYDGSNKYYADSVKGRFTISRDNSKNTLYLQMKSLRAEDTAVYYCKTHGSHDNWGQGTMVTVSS VL: QSVLTQPPSVSGAPGQRVTISCSGSRSNIGSNTVKWYQQLPGTAPKLLIYGNDQRPSGVPDRFSGSKSGTSASLAITGLQAEDEADYYCQSYDRYTHPALLFGTGTKVTVL
assayEndpoint: koff
recordedResult: 0.000127
--
binder: J695 (Y61-L94Y-L50Y IgG*) (antibody, V domains shown, also called ABT-874) VH: QVQLVESGGGVVQPGRSLRLSCAASGFTFSSYGMHWVRQAPGKGLEWVAFIRYDGSNKYYADSVKGRFTISRDNSKNTLYLQMNSLRAEDTAVYYCKTHGSHDNWGQGTMVTVSS VL: QSVLTQPPSVSGAPGQRVTISCSGSRSNIGSNTVKWYQQLPGTAPKLLIYYNDQRPSGVPDRFSGSKSGTSASLAITGLQAEDEADYYCQSYDRYTHPALLFGTGTKVTVLG
assayEndpoint: koff
recordedResult: 5.14e-05
--
binder: Y61-L50Y* IgG (antibody, V domains shown) VH: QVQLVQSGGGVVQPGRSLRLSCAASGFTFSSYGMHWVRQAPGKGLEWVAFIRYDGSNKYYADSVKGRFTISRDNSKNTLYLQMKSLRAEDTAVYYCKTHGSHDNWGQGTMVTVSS VL: QSVLTQPPSVSGAPGQRVTISCSGSRSNIGSNTVKWYQQLPGTAPKLLIYYNDQRPSGVPDRFSGSKSGTSASLAITGLQAEDEADYYCQSYDRGTHPALLFGTGTKVTVL
assayEndpoint: koff
recordedResult: 6.98e-05
